B1: scFv; the commonest letter at each place (parent)
chain 1: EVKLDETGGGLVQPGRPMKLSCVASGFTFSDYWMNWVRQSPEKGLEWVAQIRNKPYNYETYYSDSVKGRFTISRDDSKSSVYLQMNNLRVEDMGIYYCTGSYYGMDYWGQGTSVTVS
chain 2: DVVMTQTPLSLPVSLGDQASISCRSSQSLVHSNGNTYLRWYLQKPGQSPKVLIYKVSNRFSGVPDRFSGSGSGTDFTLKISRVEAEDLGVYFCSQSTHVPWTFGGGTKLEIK

Variants of: B1
PROTOCOL_SUMMARY: yeast surface expression (ratio to wild type); higher = more expressed
TEST_PARAMETERS: format: scFv 4-4-20, heavy + light
Reported yeast surface expression values are given for each entry in this list.
No unit in the answer, only the number.

Below, each entry is followed by its recorded yeast surface expression result.
[[record]]
variant_label = "chain 1 Y102H G109W"
value = 0.254

[[record]]
variant_label = "chain 1 N35A"
value = 0.902

[[record]]
variant_label = "chain 1 Y102Q M105Y"
value = 0.947


Give the measured yeast surface expression of chain 1 Y107N W108D G109C .
0.313

Please give the result for chain 1 F29G W33K too.
0.65

Please give the result for chain 1 Y102C too.
0.924

Please give the result for chain 1 F29V N35V too.
0.239

Please give the result for chain 1 Y102P M105K too.
0.473

Please give the result for chain 1 W33C too.
0.827

Please give the result for chain 1 T28C W33L too.
0.742
